Consider the following proteins and their measured Percent cleavage readings.
TEST TARGET: AxCT mask27 EGFR EH104 L054 version 1

{"PROTEIN": "MMP-7 (protein) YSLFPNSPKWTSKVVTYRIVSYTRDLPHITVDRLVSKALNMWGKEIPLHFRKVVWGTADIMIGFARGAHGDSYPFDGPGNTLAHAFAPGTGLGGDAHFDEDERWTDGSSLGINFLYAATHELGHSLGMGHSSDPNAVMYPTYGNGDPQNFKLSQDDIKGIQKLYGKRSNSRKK", "Percent cleavage": "24%"}
{"PROTEIN": "Cathepsin G (protein) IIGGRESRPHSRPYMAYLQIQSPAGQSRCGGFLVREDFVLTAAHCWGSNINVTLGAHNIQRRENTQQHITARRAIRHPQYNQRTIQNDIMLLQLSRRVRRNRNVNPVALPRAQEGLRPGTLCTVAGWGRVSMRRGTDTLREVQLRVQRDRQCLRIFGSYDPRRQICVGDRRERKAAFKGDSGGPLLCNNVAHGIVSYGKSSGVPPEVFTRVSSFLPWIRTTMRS", "Percent cleavage": "0%"}
